Target: β-CA from E. coli (Escherichia coli)
Sequence (P61517 whole entry): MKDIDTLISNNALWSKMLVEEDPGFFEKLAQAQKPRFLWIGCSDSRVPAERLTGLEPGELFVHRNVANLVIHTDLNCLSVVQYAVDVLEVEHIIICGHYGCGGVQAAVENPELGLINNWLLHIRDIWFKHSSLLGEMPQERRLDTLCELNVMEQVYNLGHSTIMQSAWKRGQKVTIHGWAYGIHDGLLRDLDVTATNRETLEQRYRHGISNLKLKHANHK
Would you kindly list pKi for each of these molecules?
Give bare numbers, as −log10 of the molar value.

Use these answered entries as a reference point.
{"molecule": "COC(=O)c1cn(CCc2ccc(S(N)(=O)=O)cc2)cc2c(=O)[nH]nc1-2 [Compound 1e]", "measurementType": "pKi", "recordedNumber": 5.50}
{"molecule": "COC(=O)c1cn(-c2ccc(S(N)(=O)=O)cc2)cc2c(=O)[nH]nc1-2 [Compound 1b]", "measurementType": "pKi", "recordedNumber": 5.46}
{"molecule": "CC(=O)N1CC(Nc2cccc(S(N)(=O)=O)c2)=CC1=O [Compound 1h]", "measurementType": "pKi", "recordedNumber": 6.15}
{"molecule": "CC12CC(c3ccccc3O1)C(C(N)=O)C(=O)N2CCc1ccc(S(N)(=O)=O)cc1 (stereo not shown) [Compound 1k]", "measurementType": "pKi", "recordedNumber": 5.41}
{"molecule": "NS(=O)(=O)CCNC=C1C(=O)Oc2ccccc2C1=O [Compound 1j]", "measurementType": "pKi", "recordedNumber": 7.02}
{"molecule": "COC(=O)c1cn(CC(=O)Nc2ccc(S(N)(=O)=O)cc2)cc2c(=O)[nH]nc1-2 [Compound 1f]", "measurementType": "pKi", "recordedNumber": 5.44}
{"molecule": "CC(=O)N1CC(Nc2ccc(S(N)(=O)=O)cc2)=CC1=O [Compound 1g]", "measurementType": "pKi", "recordedNumber": 6.34}
{"molecule": "Cc1cc(O)cc(=O)n1CCS(N)(=O)=O [Compound 1i]", "measurementType": "pKi", "recordedNumber": 5.52}
{"molecule": "COC(=O)c1cn(CCS(N)(=O)=O)cc2c(=O)[nH]nc1-2 [Compound 1a]", "measurementType": "pKi", "recordedNumber": 6.06}

Shift focus to the following entry.
Task: I'd like to know its pKi. The molecule in question is COC(=O)c1cn(-c2cccc(S(N)(=O)=O)c2)cc2c(=O)[nH]nc1-2 [Compound 1c]
Output: 5.42

* * *

Target: hCA I (Homo sapiens, UniProt P00915)
Sequence (P00915 whole entry): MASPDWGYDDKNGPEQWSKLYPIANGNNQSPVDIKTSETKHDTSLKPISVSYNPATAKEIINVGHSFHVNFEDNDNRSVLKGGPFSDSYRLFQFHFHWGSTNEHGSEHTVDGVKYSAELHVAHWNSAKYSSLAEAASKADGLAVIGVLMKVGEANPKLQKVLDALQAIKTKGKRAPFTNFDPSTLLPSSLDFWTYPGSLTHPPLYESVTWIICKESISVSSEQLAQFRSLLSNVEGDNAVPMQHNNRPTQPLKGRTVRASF
pKi: −log10 of the molar value.
Label not fulfilled if pKi falls below 7; label fulfilled in every other case.

As a guide, the following entries are already answered.
{"compound": "COC(=O)c1cn(CC(=O)Nc2ccc(S(N)(=O)=O)cc2)cc2c(=O)[nH]nc1-2 [Compound 1f]", "assignedLabel": "fulfilled"}
{"compound": "Cc1cc(O)cc(=O)n1CCS(N)(=O)=O [Compound 1i]", "assignedLabel": "not fulfilled"}
{"compound": "COC(=O)c1cn(-c2cccc(S(N)(=O)=O)c2)cc2c(=O)[nH]nc1-2 [Compound 1c]", "assignedLabel": "not fulfilled"}

Task: Kindly determine if pKi recorded for COC(=O)c1cn(CCS(N)(=O)=O)cc2c(=O)[nH]nc1-2 [Compound 1a] is above or exactly 7.
Output: not fulfilled

Task: Determine whether measured pKi meets or exceeds 7 for NS(=O)(=O)CCNC=C1C(=O)Oc2ccccc2C1=O [Compound 1j]
Output: not fulfilled

Task: Hello, I need to know if COC(=O)c1cn(CCc2ccc(S(N)(=O)=O)cc2)cc2c(=O)[nH]nc1-2 [Compound 1e] has measured pKi not below 7. Thanks!
Output: not fulfilled

Values compiled from paper PMC8955975.
